Target: T1, human GIP receptor (human) (UniProt P48546)
T1 sequence (looked up): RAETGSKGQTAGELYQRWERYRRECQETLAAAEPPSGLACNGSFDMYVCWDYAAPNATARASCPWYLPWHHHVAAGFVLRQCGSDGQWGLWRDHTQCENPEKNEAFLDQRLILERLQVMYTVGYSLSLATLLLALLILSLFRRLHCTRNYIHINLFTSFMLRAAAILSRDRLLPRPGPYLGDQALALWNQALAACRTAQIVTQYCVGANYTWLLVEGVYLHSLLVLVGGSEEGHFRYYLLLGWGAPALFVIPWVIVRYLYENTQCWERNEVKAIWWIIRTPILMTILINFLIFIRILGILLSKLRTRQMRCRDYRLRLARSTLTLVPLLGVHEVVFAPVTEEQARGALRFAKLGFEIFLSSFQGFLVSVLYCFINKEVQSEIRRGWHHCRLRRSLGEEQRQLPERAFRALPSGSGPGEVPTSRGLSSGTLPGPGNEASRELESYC
Assay: cell-based or functional assay
Measured cAMP Rel EC50, nM (in the presence of 1% HSA) values are reported for all entries that follow.
Number only, in nM; omit the unit.

YXQGTFTSDFSXXLDKKAQXAFIEWLLEGGXSSGAPPPSGE (synthetic construct; SITE 2: note = 2-Aminoisobutyric Acid; SITE 12: note = L-ornithine; SITE 13: note = alpha-methyl-leucine; SITE 17: note = Lysine is chemically modified through conjugation of the epsilon-amino group of the Lysine side chain with (2-[2-(2-Amino-ethoxy)-ethoxy]-acetyl)-(gamma-Glu)) [Example 104] : 97.5
YXQGTFTSDFSXXLDKKAQXAFIEYLLEAGPSSGEPPPSGE (synthetic construct; SITE 2: note = 2-Aminoisobutyric Acid; SITE 12: note = L-ornithine; SITE 13: note = alpha-methyl-leucine; SITE 17: note = Lysine is chemically modified through conjugation of the epsilon-amino group of the Lysine side chain with (2-[2-(2-Amino-ethoxy)-ethoxy]-acetyl)-(gamma-Glu)) [Example 135] : 23.4
YXQGTFTSDFSXXLDKKAQXAFIEYLLEAGPSSGAPPPSGE (synthetic construct; SITE 2: note = 2-Aminoisobutyric Acid; SITE 12: note = L-ornithine; SITE 13: note = alpha-methyl-leucine; SITE 17: note = Lysine is chemically modified through conjugation of the epsilon-amino group of the Lysine side chain with (2-[2-(2-Amino-ethoxy)-ethoxy]-acetyl)-(gamma-Glu)) [Example 129] : 24.3

IN: What measured cAMP Rel EC50, nM (in the presence of 1% HSA) goes with YXQGTFTSDFSXXLDKKAQXAFIEYLLEGGPSSGAPPPGGSE (synthetic construct; SITE 2: note = 2-Aminoisobutyric Acid; SITE 12: note = L-ornithine; SITE 13: note = alpha-methyl-leucine; SITE 17: note = Lysine is chemically modified through conjugation of the epsilon-amino group of the Lysine side chain with (2-[2-(2-Amino-ethoxy)-ethoxy]-acetyl)-(gamma-Glu)) [Example 65] ?
OUT: 30.2

IN: What measured cAMP Rel EC50, nM (in the presence of 1% HSA) goes with YXQGTFTSDFSKXLDKKAQXAFIEYLLEGGPSSGAPPPSEG (synthetic construct; SITE 2: note = 2-Aminoisobutyric Acid; SITE 13: note = alpha-methyl-leucine; SITE 17: note = Lysine is chemically modified through conjugation of the epsilon-amino group of the Lysine side chain with (gamma-Glu)2-CO-(CH2)16-CO2H; SITE 20: note = 2-Aminoisobutyric Acid; SITE 41:) [Example 58] ?
OUT: 3.75

IN: What measured cAMP Rel EC50, nM (in the presence of 1% HSA) goes with YXQGTFTSDFSXXLDKKAQXAFIEWLLEGGESSGAPPPEGS (synthetic construct; SITE 2: note = 2-Aminoisobutyric Acid; SITE 12: note = L-ornithine; SITE 13: note = alpha-methyl-leucine; SITE 17: note = Lysine is chemically modified through conjugation of the epsilon-amino group of the Lysine side chain with (2-[2-(2-Amino-ethoxy)-ethoxy]-acetyl)-(gamma-Glu)) [Example 125] ?
OUT: 67.8
